Record form. Attribute: K. Fill in for each entry.
- Organism: Rattus norvegicus
- METHOD DESCRIPTION: Open TG-GATES - Regimen: Single
- Type: toxicity, organism-based, Sprague-Dawley
- Parameters: regimen Single, gender Male, age 6 weeks
- CONDITION DESCRIPTION: in vivo, po, 0 mg/kg, 9 h, tissue Plasma, route gavage, dose level Control
One number for each entry, in meq/L.

MOLECULE	VAL
CN1C(C(=O)Nc2ccccn2)=C(O)c2sc(Cl)cc2S1(=O)=O [LORNOXICAM]	3.8
C#C[C@]1(O)CC[C@H]2[C@@H]3CCC4=Cc5oncc5C[C@]4(C)[C@H]3CC[C@@]21C [DANAZOL]	4.2

Give K for all molecules that follow.
1. COc1cc([C@@H]2c3cc4c(cc3[C@@H](O[C@@H]3O[C@@H]5CO[C@@H](C)O[C@H]5[C@H](O)[C@H]3O)[C@H]3COC(=O)[C@H]23)OCO4)cc(OC)c1O [ETOPOSIDE]
2. Clc1c(Cl)c(Cl)c(Cl)c(Cl)c1Cl [PERCHLOROBENZENE]

Reply:
1. 4.6
2. 3.8
